# System: Mus musculus
# test protocol: Analgesic activity against acetic acid induced mouse model assessed as number of writhes at 5 mg/kg, po administrated for 30 mins followed by acetic acid addition and measured after 20 mins by abdominal constriction test
# Format: functional
# reported conditions: time 50 min
Task for the reader: assign each of the following molecules its reported Activity.
// no unit, no text: just the number

# molecule C[C@H](c1ccccc1)N1CSC(=S)N([C@H](C)c2ccccc2)C1 ; its Activity = 39

# Activity (molecule: CCCN1CN(CC(=O)OCC)CSC1=S ) is 29.25

Recorded Activity (molecule CCN1CSC(=S)N(CC)C1 ): 40.21

Form: molecule = C[C@@H](c1ccccc1)N1CSC(=S)N([C@@H](C)c2ccccc2)C1 ; Activity = 35

Given item CC(C)N1CSC(=S)N(C(C)c2ccccc2)C1 (racemic) , the value recorded as its Activity is 41.35

---

# test protocol: Antioxidant activity assessed as DPPH radical scavenging activity incubated for 30 mins by spectrophotometric analysis
# Type: functional
Rule: IC50 below 70 µM gives class 1, anything at or above gives class 0.

IN: Is the reported IC50 for CC(C)N1CSC(=S)N(C(C)c2ccccc2)C1 (racemic) strictly below 70 µM?
OUT: class 0

IN: I wonder whether CCCN1CN(CC(=O)O)CSC1=S has IC50 below 70 µM. Can you tell?
OUT: class 0

IN: Determine if CCCN1CSC(=S)N(CC(=O)O)C1 shows IC50 strictly lower than 70 µM.
OUT: class 0

IN: Hi there! Is IC50 for CCN1CSC(=S)N(C(C)c2ccccc2)C1 (racemic) below 70 µM, do you know?
OUT: class 1

IN: State whether 70 µM exceeds IC50 recorded for CC(C)N1CN(CC(=O)O)CSC1=S .
OUT: class 0

IN: Please let me know if CCCN1CN(CC(=O)OCC)CSC1=S shows IC50 below 70 µM.
OUT: class 0

IN: Record O=C(O)CN1CN(CCO)CSC1=S : is its IC50 strictly below 70 µM?
OUT: class 0

IN: Take the compound CC(c1ccccc1)N1CN(CCO)CSC1=S (racemic) and say whether its IC50 is less than 70 µM.
OUT: class 0

IN: Report whether reported IC50 is lower than 70 µM (strictly) for COc1ccc(CN2CN(CC(=O)O)CSC2=S)cc1OC
OUT: class 0

IN: Please let me know if CC(c1ccccc1)N1CN(CC(=O)O)CSC1=S (racemic) shows IC50 below 70 µM.
OUT: class 1

IN: Strictly below 70 µM: is that where IC50 of C[C@H](c1ccccc1)N1CSC(=S)N([C@H](C)c2ccccc2)C1 sits?
OUT: class 1
